- Test system: A549
- TEST PROTOCOL: Cytotoxicity against human A549 cells
- Type: functional, cell-based
ENDPOINT LABEL: IC50

Completed entries (count: 2):
>>> result("C/C1=C\\[C@@H](C)C/C=C/[C@H]2C=C(CO)[C@@H](C)[C@H]3[C@H](Cc4c[nH]c5ccccc45)NC(=O)[C@]32C(=O)CCC(=O)C1=O")
"> 10 µM"
>>> result("C=C1[C@@H](C)[C@H]2[C@H](Cc3c[nH]c4ccccc34)NC(=O)[C@]23C(=O)/C=C/[C@H](O)[C@H](O)/C(C)=C/[C@@H](C)C/C=C/[C@H]3[C@@H]1O")
"> 10 µM"

# ---- query molecule ----
-- ask Look up and report IC50, with A549 as system, for C=C1[C@@H](C)[C@H]2[C@H](Cc3c[nH]c4ccccc34)NC(=O)[C@]23C(=O)C[C@H]2C(=O)C(O)=C(C)[C@@H]2[C@@H](C)C/C=C/[C@H]3[C@@H]1O
-- reply > 10 µM
